Numbers sourced from patent US8415376B2.

Target: PI3Kα (Homo sapiens, UniProt P42336)
Construct: Full length p110 subunits of PI3K α, β and δ, N-terminally labeled with polyHis tag; polyHis (N); made in house; host or cells: Sf9 insect cells (baculovirus)
Sequence (P42336 whole entry): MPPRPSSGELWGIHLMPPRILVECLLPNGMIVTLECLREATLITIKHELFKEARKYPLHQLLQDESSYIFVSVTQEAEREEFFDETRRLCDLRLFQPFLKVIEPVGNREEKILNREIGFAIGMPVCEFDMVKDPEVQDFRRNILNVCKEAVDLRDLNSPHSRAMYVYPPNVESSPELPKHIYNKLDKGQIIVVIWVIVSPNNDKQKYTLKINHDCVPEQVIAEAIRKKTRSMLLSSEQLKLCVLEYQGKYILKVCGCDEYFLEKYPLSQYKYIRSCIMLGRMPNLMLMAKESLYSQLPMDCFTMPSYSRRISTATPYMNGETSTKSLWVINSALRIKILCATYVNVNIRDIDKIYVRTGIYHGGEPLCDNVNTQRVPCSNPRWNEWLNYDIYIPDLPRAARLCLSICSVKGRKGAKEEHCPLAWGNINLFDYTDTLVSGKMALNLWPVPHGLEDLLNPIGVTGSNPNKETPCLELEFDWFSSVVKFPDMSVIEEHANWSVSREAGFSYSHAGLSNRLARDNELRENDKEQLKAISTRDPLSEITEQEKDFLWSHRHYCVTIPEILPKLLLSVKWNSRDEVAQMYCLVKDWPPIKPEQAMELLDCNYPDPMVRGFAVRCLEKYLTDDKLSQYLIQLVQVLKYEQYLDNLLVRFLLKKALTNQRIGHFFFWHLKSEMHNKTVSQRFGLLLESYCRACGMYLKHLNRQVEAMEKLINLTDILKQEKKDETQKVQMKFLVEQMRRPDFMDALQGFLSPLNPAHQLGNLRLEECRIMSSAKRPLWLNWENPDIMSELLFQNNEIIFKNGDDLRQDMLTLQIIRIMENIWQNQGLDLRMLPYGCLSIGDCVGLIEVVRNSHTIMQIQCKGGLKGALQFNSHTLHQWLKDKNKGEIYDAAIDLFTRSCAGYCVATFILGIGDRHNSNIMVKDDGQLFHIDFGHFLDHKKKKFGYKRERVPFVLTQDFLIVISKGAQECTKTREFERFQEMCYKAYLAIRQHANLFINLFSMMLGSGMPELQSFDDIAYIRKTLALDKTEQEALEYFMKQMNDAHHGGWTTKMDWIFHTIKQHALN
Sequence (P27986 whole entry partner): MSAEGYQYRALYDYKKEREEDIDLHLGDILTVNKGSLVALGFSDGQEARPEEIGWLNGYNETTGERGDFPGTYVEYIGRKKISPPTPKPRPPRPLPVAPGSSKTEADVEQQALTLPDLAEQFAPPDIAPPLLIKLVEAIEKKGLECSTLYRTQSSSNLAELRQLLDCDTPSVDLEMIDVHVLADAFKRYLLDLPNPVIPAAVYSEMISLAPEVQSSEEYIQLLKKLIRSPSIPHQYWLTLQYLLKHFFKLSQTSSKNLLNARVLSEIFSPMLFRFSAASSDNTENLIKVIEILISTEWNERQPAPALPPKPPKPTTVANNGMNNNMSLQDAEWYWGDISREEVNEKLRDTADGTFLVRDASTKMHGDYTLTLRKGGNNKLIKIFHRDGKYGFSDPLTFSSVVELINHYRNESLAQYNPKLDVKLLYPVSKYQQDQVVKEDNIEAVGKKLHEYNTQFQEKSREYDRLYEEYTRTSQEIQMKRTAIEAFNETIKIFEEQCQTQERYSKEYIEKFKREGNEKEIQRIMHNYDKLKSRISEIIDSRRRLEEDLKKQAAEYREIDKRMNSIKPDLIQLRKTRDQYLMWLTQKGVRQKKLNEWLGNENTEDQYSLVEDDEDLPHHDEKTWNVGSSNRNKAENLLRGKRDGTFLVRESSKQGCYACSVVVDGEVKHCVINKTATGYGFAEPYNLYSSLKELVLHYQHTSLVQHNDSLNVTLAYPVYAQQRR
Assay: In vitro PI3 kinase enzyme assay (PI3K ATP loss), alpha
Type: biochemical
Settings: average if run more than once; read-out: ATP Loss (PBKα) IC50 μM (Avg)
endpoint-label: log10(IC50) (log10 of the value in µM)
Please be aware that the numbers have been log10-transformed from IC50 in µM.

COc1ccc(S(=O)(=O)Nc2cc(-c3ccc4nccc(N(C)C)c4c3)cnc2Cl)cc1 [Example 49] ... -2.13
O=S(=O)(Nc1cc(-c2ccc3nccc(N4CCOCC4)c3c2)cnc1Cl)c1ccccc1F [Example 32] ... -2.30
CS(=O)(=O)Nc1cc(-c2ccc3ncccc3c2)cnc1Cl [Example 12] ... -1.16
O=S(=O)(Nc1cc(-c2ccc3ncc(NCC4CCCNC4)nc3c2)cnc1Cl)c1ccc(F)cc1 (centres unmarked) [Example 74] ... -1.72
NCc1cc(-c2ccc3nccc(N4CCOCC4)c3c2)cnc1Cl [Example 16] ... 0.55

Now turn to the next compound.
Data request, read-out log10(IC50), for O=S(=O)(Nc1cc(-c2ccc3nnccc3c2)cnc1Cl)c1ccc(F)cc1 [Example 37]
-1.11

###

Test system: phosphorylation of Akt at Serine 473
Test: pAkt AlphaScreen (U87 cell)
Format: cell-based
Conditions: Homo sapiens, U-87 MG; U87 MG cells, pAkt Ser473; average
endpoint-label: log10 IC50 (log10 of the value in µM)
Remember, log10 of IC50, in µM.

Please tell me: log10 IC50 of CS(=O)(=O)Nc1cc(-c2ccc3nccc(N4CCC(c5ccccc5)CC4)c3c2)cnc1Cl , system phosphorylation of Akt at Serine 473?
-0.44

Also check CS(=O)(=O)Nc1cc(-c2ccc3nccc(-c4ccnc(C(F)(F)F)c4)c3c2)cnc1Cl
-1.58

What do you get for O=S(=O)(Nc1cc(-c2ccc3ncc(-c4ccncc4)nc3c2)cnc1Cl)c1ccc(F)cc1 ?
-1.51

Next up: O=S(=O)(Nc1cc(-c2ccc3nccc(N4CCOCC4)c3c2)cnc1Cl)N1CCOCC1
-1.40

Next: COCCN(C)S(=O)(=O)Nc1cc(-c2ccc3nccc(N4CCOCC4)c3c2)cnc1Cl
-1.43

###

Target: PI3Kβ (Homo sapiens, UniProt P42338)
Construct: Full length p110 subunits of PI3K α, β and δ, N-terminally labeled with polyHis tag; polyHis (N); made in house; host or cells: Sf9 insect cells (baculovirus)
Sequence (P42338 whole entry): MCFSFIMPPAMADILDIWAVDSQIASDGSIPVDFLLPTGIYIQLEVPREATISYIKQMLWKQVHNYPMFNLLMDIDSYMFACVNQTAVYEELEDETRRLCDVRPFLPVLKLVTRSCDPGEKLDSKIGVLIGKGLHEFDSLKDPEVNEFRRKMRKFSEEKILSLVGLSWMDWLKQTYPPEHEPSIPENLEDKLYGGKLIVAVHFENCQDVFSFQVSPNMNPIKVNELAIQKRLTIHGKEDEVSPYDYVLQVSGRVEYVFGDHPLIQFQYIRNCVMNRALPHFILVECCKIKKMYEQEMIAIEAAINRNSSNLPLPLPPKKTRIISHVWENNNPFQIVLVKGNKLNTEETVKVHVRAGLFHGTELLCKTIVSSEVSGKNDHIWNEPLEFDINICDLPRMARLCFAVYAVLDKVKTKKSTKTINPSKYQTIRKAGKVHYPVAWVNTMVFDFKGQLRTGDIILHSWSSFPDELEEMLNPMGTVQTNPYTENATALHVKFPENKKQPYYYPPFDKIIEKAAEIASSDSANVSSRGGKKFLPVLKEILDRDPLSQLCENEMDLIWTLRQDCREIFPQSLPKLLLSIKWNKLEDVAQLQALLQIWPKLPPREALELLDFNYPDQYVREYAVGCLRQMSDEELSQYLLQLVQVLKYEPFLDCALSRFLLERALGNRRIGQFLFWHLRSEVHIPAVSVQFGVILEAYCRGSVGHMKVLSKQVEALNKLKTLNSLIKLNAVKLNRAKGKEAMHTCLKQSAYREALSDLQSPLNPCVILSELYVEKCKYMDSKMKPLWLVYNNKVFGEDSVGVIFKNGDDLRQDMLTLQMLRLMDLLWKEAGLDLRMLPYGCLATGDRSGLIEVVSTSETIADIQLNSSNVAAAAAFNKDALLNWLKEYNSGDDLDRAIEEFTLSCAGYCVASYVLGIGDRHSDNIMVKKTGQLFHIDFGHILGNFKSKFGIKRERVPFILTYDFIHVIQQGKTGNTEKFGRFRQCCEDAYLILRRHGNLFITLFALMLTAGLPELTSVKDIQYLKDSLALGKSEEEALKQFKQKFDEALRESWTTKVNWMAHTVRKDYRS
Sequence (P27986 whole entry partner): as the sequence (P27986 whole entry partner) above
Assay: In vitro PI3 kinase enzyme assay (PI3K ATP loss), beta
Assay type: biochemical
Conditions: average if run more than once
endpoint-label: IC50 (µM)
Please respond with the number in µM and leave the unit unwritten.

CS(=O)(=O)Nc1cc(-c2ccc3nccc(Cl)c3c2)cnc1Cl ... 0.052
O=S(=O)(Nc1cc(-c2ccc3nccc(N4CCC(O)CC4)c3c2)cnc1Cl)c1ccc(F)cc1 ... 0.0126
O=S(=O)(Nc1cc(-c2ccc3nccc(N4CCCCC4)c3c2)cnc1Cl)c1ccc(F)cc1 ... 0.0184
O=S(=O)(Nc1cc(-c2ccc3nccc(Cl)c3c2)cnc1Cl)c1ccc(F)cc1 ... 0.0093

Look up IC50 for this compound: O=S(=O)(Nc1cc(-c2ccc3ncc(NCCOc4ccccc4)nc3c2)cnc1Cl)c1ccc(F)cc1
0.0079

# repeat for COCCN(C)c1cnc2ccc(-c3cnc(Cl)c(NS(=O)(=O)c4ccc(F)cc4)c3)cc2n1
0.0207

Also, O=S(=O)(Nc1cc(-c2cnc3ncccc3c2)cnc1Cl)c1ccc(F)cc1 please.
5.61

Would you kindly repeat that for O=S(=O)(Nc1cc(-c2ccc3nccnc3c2)cnc1Cl)c1ccc(F)cc1 ?
0.0254
